// cross-study collection: IC50 for SYK kinase (Homo sapiens, UniProt P43405)
Expressed in nM, but write only the number.

Here is how some compounds turned out for IC50.
C#Cc1cc(Nc2nccc(Oc3ccc(NC(=O)Nc4cc(C(C)(C)C)nn4C)c4ccccc34)n2)cc(C(=O)NCCN2CCOCC2)c1: 149
COc1cc(Nc2cc(Oc3ccc(NC(=O)Nc4cc(C(C)(C)C)cc(NS(C)(=O)=O)c4OC)c4ccccc34)ccn2)ccc1C(=O)NCCN1CCC(O)CC1: 192
CC(C)(C)c1ccc(-c2cc3nccnc3c(OC[C@@H]3CN(S(N)(=O)=O)CCO3)n2)cc1: 63
C#CC(C)(C)c1cc(NC(=O)Nc2ccc(Oc3ccnc(Nc4cccc(OCCN5CCOCC5)n4)n3)c3ccccc23)n(-c2ccc(C)cc2)n1: 348
Cc1c[nH]c2c(Nc3nc(N[C@@H]4CCCC[C@@H]4N)c(F)c4cn[nH]c(=O)c34)cc(F)cc12: 2

-- ask Short answer please: IC50, SYK kinase (Homo sapiens, UniProt P43405), entry CCC(=O)N1CCO[C@H](COc2nc(-c3ccc(N(C)C)cc3)cc3nccnc23)C1
-- reply 40

-- ask Short answer please: IC50, SYK kinase (Homo sapiens, UniProt P43405), entry C#Cc1cc(Nc2nccc(Oc3ccc(NC(=O)Nc4cc(C(C)(C)C)nn4-c4ccc(C)cc4)c4ccccc34)n2)cc(C(=O)NCCOCCOCCOCCOC)c1
-- reply 237

-- ask Short answer please: IC50, SYK kinase (Homo sapiens, UniProt P43405), entry COCCOCCOCCOc1cc(Nc2nccc(Oc3ccc(NC(=O)Nc4cc(C(C)(C)C)cc(-c5cnn[nH]5)c4OC)c4ccccc34)n2)cc(OC)c1
-- reply 86

-- ask Short answer please: IC50, SYK kinase (Homo sapiens, UniProt P43405), entry Cc1n[nH]c2ccc(Nc3nccc(Oc4ccc(NC(=O)Nc5cc(C(C)(C)C)nn5-c5ccc(OCCN6CCOCC6)cc5)c5ccccc45)n3)cc12
-- reply 3

-- ask Short answer please: IC50, SYK kinase (Homo sapiens, UniProt P43405), entry COc1cc(Nc2cc(Oc3ccc(NC(=O)Nc4cc(C(C)(C)C)cc(NS(C)(=O)=O)c4OC)c4ccccc34)ccn2)ccc1C(=O)NCCN1CCOCC1
-- reply 172

-- ask Short answer please: IC50, SYK kinase (Homo sapiens, UniProt P43405), entry Cn1ccc2cc(-c3cc4nccnc4c(OC[C@@H]4CN(S(C)(=O)=O)CCO4)n3)ccc21
-- reply 33

-- ask Short answer please: IC50, SYK kinase (Homo sapiens, UniProt P43405), entry COc1cc(Nc2nc(-c3ccc4c(c3)C(=O)NCCO4)cn3ccnc23)ccc1N1CCN(C2COC2)CC1
-- reply 8
